B1: CPEB3 Ribozyme (parent)
chain: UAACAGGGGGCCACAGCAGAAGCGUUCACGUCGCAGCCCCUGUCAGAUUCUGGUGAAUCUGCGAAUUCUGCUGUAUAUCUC

# Variants of: B1
# MEASUREMENT NOTES: self-cleavage, relative activity (ratio to wild type); higher = more cleavage; in vitro, sequencing
Decide using self-cleavage: a value greater than or equal to 0.3 is T, a smaller one is F.

A selection of reference data follows.
UAACAGGGGGCCGCAGCAGAAGCGUUCACGUCGCAGCCCCUGUCAGAUUCCGGUGAAUCUGCGAAUUCUGCUGUAUAUCUC [A13G U51C] :: T
UAACAGGGGGCCACAGCAGAAGCGUUCACGUCGCACCCCCUGUCAGAUUCUGGUGAAUCUGCGAAUUCUGCUGUAUAUCAC [G36C U80A] :: F
UAACAGGGGGCCACAGCAGAAGCGUUCACGUCGCAGCCCCUGUCAGAUUCAGGUGAACCUGCGAAUUCUGCUGUAUAUCUC [U51A U58C] :: T
UAUCAGGGGGCCACAGCAGAAGCGUUCACGUCGCAGCCCCUGUCAGAUUCCGGUGAAUCUGCGAAUUCUGCUGUAUAUCUC [A3U U51C] :: T
UAACAGGGGGCCACAGCAUAAGCGUUCACGUCGCAGCCCCUGUCAGAUUCAGGUGAAUCUGCGAAUUCUGCUGUAUAUCUC [G19U U51A] :: F

Could you verify whether the entry UAACAGGGGGCCACAGCAGAAGCGUUCACGUCGCAGCCCCUGUCAGAUUCUGGAGGAUCUGCGAAUUCUGCUGUAUAUCUC [U54A A56G] shows self-cleavage of no less than 0.3?
T

Would you kindly repeat that for GAACAGGGGGCCACAGCAGAAGCGCUCACGUCGCAGCCCCUGUCAGAUUCUGGUGAAUCUGCGAAUUCUGCUGUAUAUCUC [U1G U25C] ?
F

Would you kindly repeat that for UAACAGGGGGCCACAGCAGAAGCGUUCACGUCGCAGACCCUGUCAGAUUCUGGUGAAUCUGCGAAUUCUGCUGUGUAUCUC [C37A A75G] ?
F

Would you kindly repeat that for UAACAGGGGGCCACAGCAGAAGGGUUCACGUCGCAGCCCCUGUCGGAUUCUGGUGAAUCUGCGAAUUCUGCUGUAUAUCUC [C23G A45G] ?
F

Would you kindly repeat that for UAACAGGGGGCCACAGCAGAAGCGUUCACGUCGCAGCCCCUGUCAGAUUCUGGUGAAUCUGCGAAUUCCCCUGUAUAUCUC [U69C G70C] ?
F

Would you kindly repeat that for UAACAGGGGUCCACAGCAGAAGCGUUCACGUCGCAGCCCCUGUCAGAUUCUGGUGAAUCUGCGAAUUCAGCUGUAUAUCUC [G10U U69A] ?
F

Would you kindly repeat that for UAACAGGGGGCCACAGCAGAAGCGUUCACGUCGCAGCCUCUGUCAGAUUCUGGUGAAUCUGCGAAUUCUGCGGUAUAUCUC [C39U U72G] ?
T

Would you kindly repeat that for UAACAGGGGGACACAGCAGAAGCGUUCACGUCGCAGCCCCUGUCAGAUACUGGUGAAUCUGCGAAUUCUGCUGUAUAUCUC [C11A U49A] ?
F

Would you kindly repeat that for UAACAGUGGGCCACAGCAGAAGCGUUCACGUCGCAGCCCCUGUCAGAUUCUGGUGAAUCCGCGAAUUCUGCUGUAUAUCUC [G7U U60C] ?
F

Would you kindly repeat that for UAACAGGGGGCCACAGCAGAAGCGUUCUCGUCGCAGCCCCUGUCAGAUUCUGGUGAAUCUGCGAAUUCAGCUGUAUAUCUC [A28U U69A] ?
T

Would you kindly repeat that for UAACAGGGGGCCACAGCAGAAGCGUUCACGGCGCAGCCCCUGUCAGAUUCUGGUGAAUCUGCGAAUUCUGCAGUAUAUCUC [U31G U72A] ?
T

Would you kindly repeat that for UAACAGGGGGCCACAGCAGAAGGGUUCACGUCGCAGCCCCUGUCAGAUUCUGGUGAAUCUGCGAAUUCUGCUGUAUAACUC [C23G U78A] ?
T

Would you kindly repeat that for UAACAAGGGGCCACAGCAGAAGCGUUCACGUCGCAGCCCCUGUCAUAUUCUGGUGAAUCUGCGAAUUCUGCUGUAUAUCUC [G6A G46U] ?
T

Would you kindly repeat that for UAACAGGGGGCCACAGCAGAAGCGUUCACGUCGCAGCCCCUGUCAGAUUCUGGUGUAUUUGCGAAUUCUGCUGUAUAUCUC [A56U C59U] ?
F

Would you kindly repeat that for UAACAGGGGGCCCCAGCAGAAGCGCUCACGUCGCAGCCCCUGUCAGAUUCUGGUGAAUCUGCGAAUUCUGCUGUAUAUCUC [A13C U25C] ?
T

Would you kindly repeat that for UAACAGGGGGCCACAGGAGAAGCGUUCACGUCACAGCCCCUGUCAGAUUCUGGUGAAUCUGCGAAUUCUGCUGUAUAUCUC [C17G G33A] ?
F

Would you kindly repeat that for UAACAGGGGGCCAUAGCAGAAGCGUUCACGUCGCAGCCCCUGUCAGAUUCUGGUGAGUCUGCGAAUUCUGCUGUAUAUCUC [C14U A57G] ?
T

Would you kindly repeat that for UAACAGGGGGCCACAGCUGAAGCGUUCACGUCGCAGCCACUGUCAGAUUCUGGUGAAUCUGCGAAUUCUGCUGUAUAUCUC [A18U C39A] ?
F

Would you kindly repeat that for UAACAGGGAGCCACUGCAGAAGCGUUCACGUCGCAGCCCCUGUCAGAUUCUGGUGAAUCUGCGAAUUCUGCUGUAUAUCUC [G9A A15U] ?
F

FYI, the data here is from the RNAGym collection of RNA variant scans (doi:10.1093/nar/gkz1192).
